# Test system: VDR homodimer (NR concentration 270 nM)
# assaySummary: PBM binding z-score (relative to random genomic background probes); higher = stronger binding; sequences stand for … in GC…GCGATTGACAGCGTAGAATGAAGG
Kindly state PBM binding z-score for each of the entries shown.
Give bare numbers.

CAAGCTAGGTCACAGAGGTCAAAGTCCGTGCGTA = 7.28
CCGACTGGGGCAAGGTTACCATTACGCACAGCCA = 0.338
ATCGAAAGTTCGAGGTGAGTATAGAGAAAGGGAA = 1.09
TTACCAAGGTGAAGTTCGTTGATCCCTCTGTAGA = 1.66
TGAATGAGGTTGAAGATCAGGGAACGTGGCGTCG = -0.192
TCTATTAGTTGAAGGGCAACCCACGAGTCCGTTT = 1.81

Give measured PBM binding z-score for every item shown.
1. TCATATTGGTAATACAGGTGAAAGTCGGCATCTA
2. CCTAGTTGATCAGGAGGTCACACACCGGATATGA
3. CCTAACGGGTCACTGACAGGTTATAGCATTTGGA
4. ATCGAAAGGTCGAAGGTGAGAATACCCACCCGAA

Result:
1: 0.279; 2: 3.06; 3: 0.931; 4: 0.515

Give one value of PBM binding z-score per listed sequence.
1. ATCTCTAGGTCAAGTTCAGTGAAAGATCGATAGA
2. GCTCGGAGGACAAGGTTAGAGCTTTGTCCGTAGA
3. AGAATGAGGTTACCAATGATCAGGGAAACGCTTG

Result:
3.44
-0.796
0.0566

Quick request: PBM binding z-score for each listed item, please.
1. ATCGCTAGGTAAAGTTCAGTGAAAGATCGATAGA
2. GCTTACGGGTCAAGGGTTATAGCATGAATAGAAT

Result:
1. 1.49
2. 0.975

Provide each entry's PBM binding z-score from the list below.
1. GTACCAAGGTGAATAGGTCGTTGACGAGTAGGCG
2. CTACCAAGGTGAACTAGGTCGTTGATTACTATTC
3. AGTCAAAGTTCACTAGGTAACTTAAGATTCAGCT
4. TCTAGTTGGTCACGGCGGTCACACACGACGGGTA
5. GGGACTGGGGCAAAGCAGGTTACCATAAGGTTGG

Result:
0.14
0.82
3.85
0.652
0.624

Kindly give each listed record's PBM binding z-score.
1. AGAACGAGGGCACGCTGAGTTGATAACAGAGTAG
2. CGAACTAGATCATCCAGGACAGTGAATACATTGA
3. TAGCCTAGGTCATTGGGCCAGTAAAGTACGCATC

Result:
[1.46, 0.494, 1.48]

Quick request: PBM binding z-score for each listed item, please.
1. GATGCAGGGTCAGCTAGAGGCCAGAGTATGGAAA
2. CCTATTGGGCCAAGGTCATTGATCAGTCAAAGCA
3. TCTGCTAGGTCAGTTGGTTAGCTAACGAGCTGCC
4. ATATGTAGGCTAAGGGTCATTCAGGTTGGTTCGC
5. AGAACGAGGGCAATGTGTTGATAGCACGGGTGGC
6. CGTCCAAGGTCATAGGAGGTCAGTGGAGACAGAT

Result:
0.522
3.13
-0.573
3.63
0.944
4.82

Data provenance is the supplement of paper PMC6555819.
